Each recorded value in this set is attributed to patent US20220177587A1.

# experimental target: CD28 (Homo sapiens, UniProt P10747)
# assay details: Jurkat/IL2 + CHO/OKT3 +/- PD-L1 reporter assay: PD-L1-dependent CD28 costimulation
# Type: cell-based
# Design: host or cells: Jurkat cells expressing an IL-2-luciferase reporter
# assay setup: Table E17; consensus variants; Jurkat/IL2 + CHO/OKT3/PD-L1; 5.0 nM
measured parameter: Relative Luciferase Units (RLU), CD80 Cone 5.0 nM
Kindly format the answer as number then unit.

**Query** What value of measured Relative Luciferase Units (RLU), CD80 Cone 5.0 nM is listed for H18Y/E35D/M47L/Y53F/V68M/A71G (protein, UniProt P33681 35-288, looked up, variant H18Y E35D M47L Y53F V68M A71G) T-lymphocyte activation …: VIHVTKEVKEVATLSCGYNVSVEELAQTRIYWQKDKKMVLTMMSGDLNIWPEFKNRTIFDITNNLSIMILGLRPSDEGTYECVVLKYEKDAFKREHLAEVTLSVKADFPTPSISDFEIPTSNIRRIICSTSGGFPEPHLSWLENGEELNAINTTVSQDPETELYAVSSKLDFNMTTNHSFMCLIKYGHLRVNQTFNWNTTKQEHFPDNLLPSWAITLISVNGIFVICCLTYCFAPRCRERRRNERLRRESVRPV ?
**Result** 2277 RLU
